# assayed_system: GST-RIPK1 (recombinant GST-RIPK1 kinase domain (residues 1-327)) (Homo sapiens (Human))
# Sequence (Q13546 1-327): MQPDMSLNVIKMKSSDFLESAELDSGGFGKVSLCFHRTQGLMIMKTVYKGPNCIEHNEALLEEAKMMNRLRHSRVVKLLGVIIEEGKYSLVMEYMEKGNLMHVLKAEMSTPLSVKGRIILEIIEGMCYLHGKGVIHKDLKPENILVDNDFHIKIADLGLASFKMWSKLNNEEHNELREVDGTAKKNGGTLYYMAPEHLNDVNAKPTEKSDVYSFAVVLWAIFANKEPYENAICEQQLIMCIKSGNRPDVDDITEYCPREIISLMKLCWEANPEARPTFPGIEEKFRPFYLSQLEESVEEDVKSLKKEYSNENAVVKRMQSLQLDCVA
# protocol_notes: RIPK1-ADP-Glo Enzymatic Assay
# condition_notes: 25 nM GST-RIPK1, 300 μM ATP, 3 μM dephosphorylated-MBP, 30 min pre-incubation, 150 min reaction
# Procedure: The enzymatic activity of RIPK1 is measured using an assay derived from ADP-Glo kit (TMPromega), which provides a luminescent-based ADP detection system. Specifically, the ADP generated by RIPK1 kinase is proportionally detected as luminescent signals in a homogenous fashion. In this context, the assessment of the inhibitory effect of small molecules (EC50) is measured by the effectiveness of the compounds to inhibit the ATP to ADP conversion by RIPK1. […]
measured_metric: EC50 (nM)

Completed entries (count: 3):
- compound: "O=c1n(C23CC(C(F)F)(C2)C3)nc2n1[C@H](c1ccccc1)CC2"
  assayed_system: "GST-RIPK1 (recombinant GST-RIPK1 kinase domain (residues 1-327)) (Homo sapiens (Human))"
  quantity_unit: "nM"
  EC50: 36.8
- compound: "N#CC12CC(n3nc4n(c3=O)[C@H](c3ccccc3)CC4F)(C1)C2 (single isomer, unassigned) [Compound 6-8]"
  assayed_system: "GST-RIPK1 (recombinant GST-RIPK1 kinase domain (residues 1-327)) (Homo sapiens (Human))"
  quantity_unit: "nM"
  EC50: 21.8
- compound: "O=c1n(C23CC(F)(C2)C3)nc2n1[C@H](c1cc(F)c(O)c(F)c1)CC2"
  assayed_system: "GST-RIPK1 (recombinant GST-RIPK1 kinase domain (residues 1-327)) (Homo sapiens (Human))"
  quantity_unit: "nM"
  EC50: 28.2

I = O=c1n(C23CC(Cl)(C2)C3)nc2n1[C@H](c1ccc(F)cn1)CC2
II = Cc1cncc([C@@H]2CCc3nn(C45CC(F)(C4)C5)c(=O)n32)n1
III = Cc1cc(F)cc([C@@H]2CCc3nn(C45CC(F)(C4)C5)c(=O)n32)c1
IV = N#CC12CC(n3nc4n(c3=O)[C@H](c3cc(F)cc(F)c3)CC4F)(C1)C2 (single isomer, unassigned) [Compound 6-5]
V = O=c1n(C23CCC(C2)C3)nc2n1[C@H](c1cc(F)cc(F)c1)CC2
Incoming: List by increasing EC50. # output: labels, in the requested order
Outgoing: III, V, II, I, IV

###

# assayed_system: GST-RIPK1 (recombinant GST-RIPK1 kinase domain (residues 1-327)) (Homo sapiens (Human))
# protocol_notes: RIPK1-ADP-Glo Enzymatic Assay
# condition_notes: 25 nM GST-RIPK1, 300 μM ATP, 3 μM dephosphorylated-MBP, 30 min pre-incubation, 150 min reaction
measured_metric: EC50 (µM)

Completed entries (count: 3):
- molecule: "N#CC12CC(n3nc4n(c3=O)[C@H](c3ccccc3F)CC4)(C1)C2 [Compound 1-23]"
  EC50 / µM: 0.0318
- molecule: "O=c1n(C23CC(F)(C2)C3)nc2n1[C@H](c1ccc(C3CC3)cc1)CC2 [Compound 4-11]"
  EC50 / µM: 0.108
- molecule: "O=c1n(C23CC(F)(C2)C3)nc2n1[C@H](c1cc(F)cc(F)c1)C[C@H]2O [Compound 5-1]"
  EC50 / µM: 0.0783

I = COC(=O)C12CC(n3nc4n(c3=O)[C@H](c3cc(F)cc(F)c3)CC4)(C1)C2(F)F [Compound 1-36]
II = O=c1n(C23CC(F)(C2)C3)nc2n1[C@H](c1cnccn1)C[C@@H]2F [Compound 4-17]
III = N#CC12CC(n3nc4n(c3=O)[C@H](c3ccc(F)cc3)CC4)(C1)C2 [Compound 1-38]
IV = N#CC12CC(n3nc4n(c3=O)[C@H](c3cccc(C(F)(F)F)c3)CC4)(C1)C2 [Compound 1-49]
Incoming: List by increasing EC50. # output: labels, in the requested order
Outgoing: II, I, III, IV

I = Cc1ccc([C@@H]2CCc3nn(C45CC(C#N)(C4)C5)c(=O)n32)cc1 [Compound 4-7]
II = COC(=O)C12CC(n3nc4n(c3=O)[C@H](c3ccccc3)CC4)(C1)C2(F)F [Compound 3-2]
Incoming: Decide: I or II , by lowest recorded EC50. Your answer should be the label attached to the chosen record.
Outgoing: I

P = Cc1cc(F)cc(C2CCc3nn(C45CC(F)(C4)C5)c(=O)n32)c1 (racemic) [Compound 4-6]
Q = N#CC12CC(n3nc4n(c3=O)[C@H](c3cc(F)cc(F)c3)CC4)(C1)C2 [Compound 1-5]
R = CC(F)(F)C12CC(n3nc4n(c3=O)[C@H](c3cccc(F)c3)CC4)(C1)C2 [Compound 1-34]
S = COC(=O)C12CC(n3nc4n(c3=O)[C@H](c3ccccc3)CC4)(C1)C2 [Compound 1-19]
Incoming: List by increasing EC50. # output: labels, in the requested order
Outgoing: Q, R, P, S

P = O=c1n(C23C4C5C2C2C3C4C52F)nc2n1[C@H](c1cc(F)cc(F)c1)CC2 (stereo partly shown) [Compound 1-20]
Q = N#CC12CC(n3nc4n(c3=O)[C@H](c3cc(F)cc(F)c3)CC4F)(C1)C2 (single isomer, unassigned) [Compound 6-6]
Incoming: Decide: P or Q , by lowest recorded EC50. Your answer should be the label attached to the chosen record.
Outgoing: Q
(Q: 0.0205 µM, P: 0.0385 µM)
